- System: Phakopsora pachyrhizi
- Assay procedure: Asian soybean rust, whole-plant fungicidal activity (PHAKPA)
- Assay type: in vivo
- Cond: 72 h, 3DC (3 day curative), read-out: % Disease Control Rating PHAKPA
Here the recorded pest or weed control at 200 ppm is given for each entry.
Measured property: pest or weed control at 200 ppm

1) CC/C(=N\c1cc(C)c(C(=O)CC2CCCC2)cc1C)N(C)CC ... > 85%
2) CCN(C)/C=N/c1cc(C)c(C(=O)Cc2ccc(C)cc2C)cc1C ... 20 to 50%
3) CCN(C)/C=N/c1cc(C)c(C(=O)C2CCCC2)cc1C ... > 85%
4) CCN(C)/C=N/c1ccc(C(=O)Cc2ccc(C)cc2F)c(C)c1C ... > 85%
5) CCN(C)/C=N/c1cc(C)c(C(=O)Cc2c(F)cc(F)cc2F)cc1OC ... 20 to 50%
6) CCN(C)/C=N/c1ccc(C(=O)CCCC(F)(F)F)c(C)c1C ... > 85%
7) CCCc1ccc(CC(=O)c2cc(C)c(/N=C/N(C)CC)cc2C)cc1 ... > 85%
8) Cc1cc(C(=O)CC2CCCCC2)c(C)cc1/N=C(\S)N(C)C ... 50 to 85%
9) CCN(/C=N/c1cc(C)c(C(=O)CC2CCCC2)cc1C)CC ... > 85%
